Source listed as the NIST ThermoML archive (doi:10.1021/je800243y).

Test: molar heat capacity at constant pressure
Conditions: 328.15 K; 101.33 kPa; Crystal; Large sample (1 g) DSC
Quick reference for molar heat capacity at constant pressure among some compounds
Could you give me the number in J/K/mol? Just the number is fine.

| COMPOUND | OBSERVED RESULT |
| --- | --- |
| O=c1[nH]c(=O)n([C@H]2C[C@H](O)[C@@H](CO)O2)cc1Br [5-bromo-2'-deoxyuridine] | 276.94 |
| O=c1[nH]c(=O)n([C@@H]2O[C@H](CO)[C@@H](O)[C@H]2O)cc1I [2,4-dihdroxy-5-iodo-1-β-D-ribofurnosylpyrimidine] | 341.72 |
| Cc1cn([C@H]2C[C@H](O)[C@@H](CO)O2)c(=O)[nH]c1=O [thymidine] | 289.53 |
| O=c1ccn([C@H]2C[C@H](O)[C@@H](CO)O2)c(=O)[nH]1 [2'-deoxyuridine] | 279.89 |
| O=c1[nH]c(=O)n([C@H]2C[C@H](O)[C@@H](CO)O2)cc1I [5-iodo-2'-deoxyuridine] | 298.96 |

Looking up O=c1[nH]c(=O)n([C@@H]2O[C@H](CO)[C@@H](O)[C@H]2O)cc1Br [5-bromouridine] , I found its molar heat capacity at constant pressure recorded as 308.52

---

Assay: molar heat capacity at constant pressure
Conditions: 308.15 K; 101.33 kPa; Crystal; Large sample (1 g) DSC
molar heat capacity at constant pressure less than 300 J/K/mol is criterion met; molar heat capacity at constant pressure greater than or equal to 300 J/K/mol is criterion not met.

// known answers, use as guide
| STRUCTURE SMILES STRING | LABEL |
| --- | --- |
| O=c1[nH]c(=O)n([C@H]2C[C@H](O)[C@@H](CO)O2)cc1I | criterion met |
| O=c1[nH]c(=O)n([C@@H]2O[C@H](CO)[C@@H](O)[C@H]2O)cc1I | criterion not met |
| O=c1ccn([C@H]2C[C@H](O)[C@@H](CO)O2)c(=O)[nH]1 | criterion met |
| O=c1[nH]c(=O)n([C@H]2C[C@H](O)[C@@H](CO)O2)cc1Br | criterion met |

Please look at the following compound next.
Is it true that molar heat capacity at constant pressure reported for `Cc1cn([C@H]2C[C@H](O)[C@@H](CO)O2)c(=O)[nH]c1=O` is less than 300 J/K/mol?
criterion met
